- Target or system: Serine/threonine-protein kinase pim-1 (Homo sapiens) (UniProt P11309)
- Sequence (P11309 whole entry, looked up): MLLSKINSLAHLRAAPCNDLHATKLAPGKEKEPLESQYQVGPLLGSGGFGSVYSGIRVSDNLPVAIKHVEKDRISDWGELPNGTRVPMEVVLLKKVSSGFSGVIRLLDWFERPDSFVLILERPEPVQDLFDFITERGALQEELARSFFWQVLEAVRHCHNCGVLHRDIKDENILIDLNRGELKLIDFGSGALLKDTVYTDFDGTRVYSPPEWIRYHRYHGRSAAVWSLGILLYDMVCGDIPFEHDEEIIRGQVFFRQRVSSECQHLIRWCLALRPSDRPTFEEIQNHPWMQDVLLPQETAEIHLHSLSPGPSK
- Condition notes: at 10 µM
Assay endpoint: residual activity (%)
Answers are plain numbers, in %.

>>> measured_value("NCCNc1ncc(C(N)=O)c(Nc2cccc(C(F)(F)F)c2)n1")
38
>>> measured_value("Fc1ccc(-c2nc3n(c2-c2ccncc2)CCS3)cc1")
73
>>> measured_value("Cn1sc(=O)n(Cc2ccccc2)c1=O")
95
>>> measured_value("Nc1ncnc2[nH]nc(Nc3ccc(F)cc3)c12")
53
>>> measured_value("NC(=O)c1cccc(-c2cc(Nc3ccc(OC(F)(F)F)cc3)ncn2)c1")
100

// for each compound in input: emit residual activity
1. N#Cc1c(NC(=O)c2cccc3ccccc23)sc2c1CCCC2
2. O=c1cc(N2CCNCC2)oc2c(-c3ccccc3)cccc12
3. CCCCc1c(-c2ccc(OC)cc2)[nH]c2nccnc12
4. CCN1/C(=C/C(C)=O)Sc2ccc(OC)cc21
5. O=C1Nc2ccccc2/C1=C\c1c(Cl)[nH]c2ccccc12

stdout:
77
54
88
4
26

// for each compound in input: emit residual activity
1. CC(C)[C@H](CO)Nc1nc(Nc2cc(N)cc(Cl)c2)c2ncn(C(C)C)c2n1
2. O=C1NC(=O)c2c1c1c3ccccc3[nH]c1n1cncc21

stdout:
1: 86; 2: 2

// for each compound in input: emit residual activity
1. CSc1nc(-c2ccc(F)cc2)c(-c2ccnc(NC(C)c3ccccc3)c2)[nH]1 (centres undefined)
2. N#C/C(=C\c1ccc(O)c(O)c1)C(=O)NCc1ccccc1

stdout:
1: 53; 2: 70

---

- Target or system: Homeodomain-interacting protein kinase 3 (Homo sapiens) (UniProt Q9H422)
- Sequence (Q9H422 whole entry, looked up): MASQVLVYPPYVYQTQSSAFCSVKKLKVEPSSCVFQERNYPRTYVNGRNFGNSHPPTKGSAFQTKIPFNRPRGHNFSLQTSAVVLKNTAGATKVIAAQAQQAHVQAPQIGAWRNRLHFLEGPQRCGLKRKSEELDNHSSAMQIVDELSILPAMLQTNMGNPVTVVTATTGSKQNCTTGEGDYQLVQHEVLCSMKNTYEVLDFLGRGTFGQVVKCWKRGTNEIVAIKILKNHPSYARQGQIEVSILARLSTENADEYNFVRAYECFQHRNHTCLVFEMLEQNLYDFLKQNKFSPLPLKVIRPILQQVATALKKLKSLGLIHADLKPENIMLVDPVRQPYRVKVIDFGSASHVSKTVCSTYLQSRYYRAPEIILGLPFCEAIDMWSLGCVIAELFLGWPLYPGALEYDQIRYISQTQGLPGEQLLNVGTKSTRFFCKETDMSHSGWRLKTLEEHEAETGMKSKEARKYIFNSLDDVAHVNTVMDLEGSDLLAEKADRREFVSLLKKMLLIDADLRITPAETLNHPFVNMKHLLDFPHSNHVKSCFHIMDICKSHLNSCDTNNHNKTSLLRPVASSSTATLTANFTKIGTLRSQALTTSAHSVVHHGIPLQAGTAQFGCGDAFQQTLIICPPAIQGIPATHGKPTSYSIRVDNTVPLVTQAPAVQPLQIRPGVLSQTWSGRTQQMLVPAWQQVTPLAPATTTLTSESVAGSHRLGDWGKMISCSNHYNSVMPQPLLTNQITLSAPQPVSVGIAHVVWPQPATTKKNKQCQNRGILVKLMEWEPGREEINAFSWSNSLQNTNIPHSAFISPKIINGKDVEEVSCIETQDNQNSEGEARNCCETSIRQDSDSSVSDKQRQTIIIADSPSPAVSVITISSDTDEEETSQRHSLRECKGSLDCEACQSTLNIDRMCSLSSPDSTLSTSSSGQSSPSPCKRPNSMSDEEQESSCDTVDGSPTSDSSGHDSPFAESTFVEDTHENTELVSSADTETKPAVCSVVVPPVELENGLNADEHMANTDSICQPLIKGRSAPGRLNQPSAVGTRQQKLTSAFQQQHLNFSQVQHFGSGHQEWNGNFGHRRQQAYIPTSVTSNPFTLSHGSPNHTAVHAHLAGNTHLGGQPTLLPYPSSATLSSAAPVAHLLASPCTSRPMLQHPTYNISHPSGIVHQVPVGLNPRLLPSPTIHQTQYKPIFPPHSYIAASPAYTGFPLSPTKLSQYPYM
- Condition notes: at 10 µM
Assay endpoint: residual activity (%)
Answers are plain numbers, in %.

// solved cases for residual activity follow
>>> measured_value("c1ccc(-c2cnc(Nc3ccc(OCCN4CCCC4)cc3)s2)cc1")
31
>>> measured_value("CCCC(=O)Oc1ccc2[nH]c(C(=O)c3cc4ccccc4[nH]3)cc2c1")
98
>>> measured_value("COc1cc2nccc(Oc3ccc(NC(=S)NC(=O)c4ccccc4C)cc3)c2cc1OC")
101
>>> measured_value("COc1ccc(Cl)cc1NC(=O)Nc1cc(C)nc2ccccc12")
98
>>> measured_value("O=C1Nc2ccc(Cl)cc2/C1=C/c1cc(Cl)c(O)c(Cl)c1")
46
>>> measured_value("O=C(c1cc2cc(O)ccc2[nH]1)c1cc2cc(O)ccc2[nH]1")
25

// for each molecule in input: emit residual activity
1. O=C(CCCc1ccc(-c2ccccc2F)cc1)Nc1ccc(O)cc1
2. CCCCc1c(-c2ccc(OC)cc2)[nH]c2nccnc12

stdout:
1: 98; 2: 110

---

- Target or system: Death-associated protein kinase 1 (Homo sapiens)
- Condition notes: at 10 µM
# label = MET if residual activity < 70% else NOT MET

Here are 3 compounds together with their reported answers.
>>> qualitative_label("NC(=O)c1ccc(-c2nc(-c3ccc4c(c3)OCCO4)c(-c3ccccn3)[nH]2)cc1")
"NOT MET"
>>> qualitative_label("O=C1NC(=O)c2c1c1c3ccccc3[nH]c1n1cncc21")
"MET"
>>> qualitative_label("O=C(O)/C=C/c1cc(Br)c(Br)c(Br)c1Br")
"MET"

# ---- query compound ----
stdin: Please indicate whether the reported residual activity of Nc1nc(Nc2ccc(S(N)(=O)=O)cc2)nn1C(=O)c1c(F)cccc1F is strictly below 70%.
stdout: NOT MET
